The values you see were collected from paper PMC13541613.

# measurement target: ZNF721 DBD2 (Homo sapiens, UniProt Q8TF20-2 395-923)
# Sequence (Q8TF20 383-911): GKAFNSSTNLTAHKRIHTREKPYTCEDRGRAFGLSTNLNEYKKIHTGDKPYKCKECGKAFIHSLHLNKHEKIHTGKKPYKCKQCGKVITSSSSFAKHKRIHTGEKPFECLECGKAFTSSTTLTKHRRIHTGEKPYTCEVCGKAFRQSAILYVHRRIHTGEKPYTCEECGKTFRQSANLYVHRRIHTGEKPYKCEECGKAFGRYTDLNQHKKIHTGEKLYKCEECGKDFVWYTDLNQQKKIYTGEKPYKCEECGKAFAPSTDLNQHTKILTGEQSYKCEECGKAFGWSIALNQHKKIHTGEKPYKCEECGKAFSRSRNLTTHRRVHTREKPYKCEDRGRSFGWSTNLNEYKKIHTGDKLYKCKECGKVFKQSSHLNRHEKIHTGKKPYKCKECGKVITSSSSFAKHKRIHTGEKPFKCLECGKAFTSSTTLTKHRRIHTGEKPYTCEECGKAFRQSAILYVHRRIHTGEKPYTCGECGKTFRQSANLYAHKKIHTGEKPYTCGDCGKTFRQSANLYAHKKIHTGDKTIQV
# test details: HT-SELEX; 20 mM HEPES pH 7, 140 mM KCl, 5 mM NaCl, 1 mM K2HPO4, 2 mM MgSO4, 100 uM EGTA, ZnSO4, 0.1% Tween20; room temperature, 1 h; high values mean tight binding
# assay context: protein: ivt; tags: eGFP (N-terminal); dsDNA, one strand shown
Classification by binding signal | ranges: I: < 0.004 relative 10-mer count; II: ≥ 0.004 relative 10-mer count and < 0.04 relative 10-mer count; III: ≥ 0.04 relative 10-mer count

sequence record | class name
CAAAGCAGCA | III

Could you tell me which band CCCCACCCCA belongs to?
I

Could you tell me which band CCCACCCCAG belongs to?
I

Could you tell me which band CAACAAAGCA belongs to?
III

Could you tell me which band CCCCCCACCA belongs to?
II

Could you tell me which band AGAAAAAAAG belongs to?
II

Could you tell me which band CACCCCGACC belongs to?
I

Could you tell me which band CCACCCCACC belongs to?
II

Could you tell me which band CCACCCTCCC belongs to?
II

Could you tell me which band CACCCCCACC belongs to?
II

Could you tell me which band AAAAAGAAGC belongs to?
II

Could you tell me which band CACCACCCAC belongs to?
II

Could you tell me which band AAAGCAGCAC belongs to?
III

Could you tell me which band CCGCCCCCGC belongs to?
I

Could you tell me which band AACAGTGTTG belongs to?
III

Could you tell me which band CCACCCCCGC belongs to?
I

Could you tell me which band CCACCACCCC belongs to?
II

Could you tell me which band AAGCGTCTCC belongs to?
II

Could you tell me which band ACCCCCACCA belongs to?
II

Could you tell me which band AAAAAACAGC belongs to?
III

Could you tell me which band CCCCCTCCCA belongs to?
II

====

What binding signal was measured for each of the following?
# measurement target: ZNF721 full-length (Homo sapiens, UniProt Q8TF20-2 1-923)
# Sequence (Q8TF20 other isoform, or with tags, fused parts or gaps): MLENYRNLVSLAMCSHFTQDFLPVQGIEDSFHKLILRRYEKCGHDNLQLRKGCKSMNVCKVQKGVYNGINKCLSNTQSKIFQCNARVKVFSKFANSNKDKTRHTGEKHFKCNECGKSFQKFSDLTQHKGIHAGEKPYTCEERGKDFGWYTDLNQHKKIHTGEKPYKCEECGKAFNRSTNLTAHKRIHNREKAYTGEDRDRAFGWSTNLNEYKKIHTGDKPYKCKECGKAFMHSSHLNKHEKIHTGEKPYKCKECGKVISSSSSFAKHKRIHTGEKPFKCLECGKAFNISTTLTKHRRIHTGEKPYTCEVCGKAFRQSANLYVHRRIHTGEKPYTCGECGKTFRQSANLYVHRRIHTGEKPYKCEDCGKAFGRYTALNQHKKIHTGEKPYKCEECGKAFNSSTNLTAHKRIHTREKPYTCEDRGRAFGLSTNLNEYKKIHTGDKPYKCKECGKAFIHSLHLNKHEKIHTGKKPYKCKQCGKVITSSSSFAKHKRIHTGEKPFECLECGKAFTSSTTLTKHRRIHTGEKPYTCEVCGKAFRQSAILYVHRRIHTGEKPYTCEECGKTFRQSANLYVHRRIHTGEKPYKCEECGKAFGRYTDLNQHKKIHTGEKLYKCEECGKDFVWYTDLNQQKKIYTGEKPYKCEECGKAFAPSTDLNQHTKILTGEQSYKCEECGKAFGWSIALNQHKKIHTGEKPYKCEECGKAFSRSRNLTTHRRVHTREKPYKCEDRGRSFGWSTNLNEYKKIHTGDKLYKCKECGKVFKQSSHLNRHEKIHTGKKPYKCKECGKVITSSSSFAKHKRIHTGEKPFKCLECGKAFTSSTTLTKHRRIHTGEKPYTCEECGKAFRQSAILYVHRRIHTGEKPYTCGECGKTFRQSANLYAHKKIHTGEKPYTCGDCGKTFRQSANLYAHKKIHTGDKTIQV
# test details: HT-SELEX; 20 mM HEPES pH 7, 140 mM KCl, 5 mM NaCl, 1 mM K2HPO4, 2 mM MgSO4, 100 uM EGTA, ZnSO4, 0.1% Tween20; room temperature, 1 h; high values mean tight binding
# assay context: protein: ivt; tags: eGFP (N-terminal); dsDNA, one strand shown

Recorded results for 10 sequences are shown here.
sequence record | result type | observed
ACTTCATACA | binding signal | 0.358 relative 10-mer count
AAAAAAGCGT | binding signal | 0.276 relative 10-mer count
AAAAAAAAGA | binding signal | 0.116 relative 10-mer count
CCCCTCCTCC | binding signal | 0.154 relative 10-mer count
CCCCTCCCCA | binding signal | 0.188 relative 10-mer count
CTTTTTTTTA | binding signal | 0.14 relative 10-mer count
CCCCACCCAC | binding signal | 0.337 relative 10-mer count
TCCCCCCCCA | binding signal | 0.116 relative 10-mer count
AGTGTCTCCA | binding signal | 0.147 relative 10-mer count
CCCACCCACG | binding signal | 0.141 relative 10-mer count

Give me binding signal for each of these sequences, listed below.
1. CCAAAAAAAC
2. AAACGAACAG
3. GCCCACCCCA
4. ACCACCCCCA
5. CCCCCACCTC
6. ACAGCGTTTC
7. CAGAAAACAG
8. CGAAAACAGC

0.106 relative 10-mer count
0.126 relative 10-mer count
0.142 relative 10-mer count
0.142 relative 10-mer count
0.198 relative 10-mer count
0.253 relative 10-mer count
0.147 relative 10-mer count
0.167 relative 10-mer count

Give me binding signal for each of these sequences, listed below.
1. AGCATACCCC
2. AAAAAGCTCA
3. CTCCCACCAC

1: 0.144 relative 10-mer count; 2: 0.112 relative 10-mer count; 3: 0.11 relative 10-mer count

Give me binding signal for each of these sequences, listed below.
1. CAAAAAAAAG
2. CCACGCCCCC
3. CAGCATACCC
4. ACCGCCCCCC
5. CCCCCCTCCC
6. CCGTCCCCCC
7. CTCCGCCCCC
8. CCCACCCGAC

["0.269 relative 10-mer count", "0.187 relative 10-mer count", "0.596 relative 10-mer count", "0.135 relative 10-mer count", "0.304 relative 10-mer count", "0.15 relative 10-mer count", "0.11 relative 10-mer count", "0.114 relative 10-mer count"]

Give me binding signal for each of these sequences, listed below.
1. CCCTCTCCCC
2. CCACCCACCC
3. AAAGGCATAC

["0.11 relative 10-mer count", "0.415 relative 10-mer count", "0.129 relative 10-mer count"]

====

# measurement target: ZNF721 DBD1 (Homo sapiens, UniProt Q8TF20-2 29-461)
# Sequence (Q8TF20 17-449): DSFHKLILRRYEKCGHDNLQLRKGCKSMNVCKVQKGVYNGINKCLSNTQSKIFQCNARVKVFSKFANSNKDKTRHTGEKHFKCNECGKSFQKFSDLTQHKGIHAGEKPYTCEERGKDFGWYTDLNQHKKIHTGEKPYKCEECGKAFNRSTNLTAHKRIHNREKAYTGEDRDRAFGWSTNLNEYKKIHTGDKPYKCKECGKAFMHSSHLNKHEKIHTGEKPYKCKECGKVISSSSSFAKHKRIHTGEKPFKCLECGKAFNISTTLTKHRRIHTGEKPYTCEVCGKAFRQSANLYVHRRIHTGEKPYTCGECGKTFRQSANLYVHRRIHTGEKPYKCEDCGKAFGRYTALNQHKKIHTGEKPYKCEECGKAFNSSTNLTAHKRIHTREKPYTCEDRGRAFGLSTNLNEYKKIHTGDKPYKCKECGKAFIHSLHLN
# test details: HT-SELEX; 20 mM HEPES pH 7, 140 mM KCl, 5 mM NaCl, 1 mM K2HPO4, 2 mM MgSO4, 100 uM EGTA, ZnSO4, 0.1% Tween20; room temperature, 1 h; high values mean tight binding
# assay context: protein: ivt; tags: eGFP (N-terminal); dsDNA, one strand shown
Kindly return Y if reported binding signal is no lower than 0.005 relative 10-mer count; return N if it is lower.

sequence record | class name
AAAAAAGCTG | Y
AACCCCACCC | N
AGAAAAAAAG | Y
CAGGGTGGGG | N

Is binding signal for GGGGGCGGGA at or above 0.005 relative 10-mer count?
Y

Is binding signal for CAAAAAAAAG at or above 0.005 relative 10-mer count?
Y

Is binding signal for GGGTGGGGGA at or above 0.005 relative 10-mer count?
Y

Is binding signal for CCCCAACACC at or above 0.005 relative 10-mer count?
N

Is binding signal for CCACCCACAC at or above 0.005 relative 10-mer count?
Y

====

# measurement target: ZNF721 DBD2 (Homo sapiens, UniProt Q8TF20-2 395-923)
# test details: HT-SELEX; 20 mM HEPES pH 7, 140 mM KCl, 5 mM NaCl, 1 mM K2HPO4, 2 mM MgSO4, 100 uM EGTA, ZnSO4, 0.1% Tween20; room temperature, 1 h; high values mean tight binding
# assay context: protein: ivt; tags: eGFP (N-terminal); dsDNA, one strand shown
Classification by binding signal | ranges: band A: < 0.005 relative 10-mer count; band B: ≥ 0.005 relative 10-mer count and < 0.01 relative 10-mer count; band C: ≥ 0.01 relative 10-mer count

# example entries with known answers
sequence record | class name
CCCTCCACCA | band B
CCCCCCCCAC | band B
AAAGCAGCAT | band C
CATCCCCCCC | band B
AAAACAGAGT | band C

Could you tell me which band AAGCAGCGTC belongs to?
band C

Could you tell me which band CCCCCGCCTC belongs to?
band A

Could you tell me which band CCCCCACCTC belongs to?
band B

Could you tell me which band CCACCGACCC belongs to?
band A

Could you tell me which band CCTCCCCCAC belongs to?
band B

Could you tell me which band ATAAAACAGC belongs to?
band C

Could you tell me which band CCCCCCACGC belongs to?
band A

====

# measurement target: ZNF721 full-length (Homo sapiens, UniProt Q8TF20-2 1-923)
# test details: HT-SELEX; 20 mM HEPES pH 7, 140 mM KCl, 5 mM NaCl, 1 mM K2HPO4, 2 mM MgSO4, 100 uM EGTA, ZnSO4, 0.1% Tween20; room temperature, 1 h; high values mean tight binding
# assay context: protein: ivt; tags: eGFP (N-terminal); dsDNA, one strand shown
Kindly return condition met if reported binding signal is no lower than 0.2 relative 10-mer count; return condition not met if it is lower.

# example entries with known answers
sequence record | class name
CCGCCCCGCC | condition not met
AAAAACTAGC | condition not met
CACCCCTCCC | condition not met
AAAAAGCTAT | condition met

Is binding signal for AGAAAAACAG at or above 0.2 relative 10-mer count?
condition not met

====

What binding signal was measured for each of the following?
# measurement target: ZNF721 full-length (Homo sapiens, UniProt Q8TF20-2 1-923)
# test details: HT-SELEX; 20 mM HEPES pH 7, 140 mM KCl, 5 mM NaCl, 1 mM K2HPO4, 2 mM MgSO4, 100 uM EGTA, ZnSO4, 0.1% Tween20; room temperature, 1 h; high values mean tight binding
# assay context: protein: ivt; tags: eGFP (N-terminal); dsDNA, one strand shown
Answers are plain numbers, in relative 10-mer count.

Recorded results for 3 sequences are shown here.
sequence record | measurement target | observed
GCAAAAAAAA | ZNF721 full-length (Homo sapiens, UniProt Q8TF20-2 1-923) | 0.118
CCCCACCACA | ZNF721 full-length (Homo sapiens, UniProt Q8TF20-2 1-923) | 0.148
AAAAAAGCAT | ZNF721 full-length (Homo sapiens, UniProt Q8TF20-2 1-923) | 0.343

Give me binding signal for each of these sequences, listed below.
1. CCTCCCCCCC
2. ACAAAAAAAC
3. AAAAAAAAAC
4. CTTCATACCA
5. AACCCCACCC
6. AAAAAAGCGC
7. ATCCCACCCC

[0.236, 0.151, 0.134, 0.116, 0.141, 0.115, 0.123]
